# procedure_text: Clearance in rat
# Type: ADME, organism-based
# condition_description: in vivo
outcome_measure: clearance (mL/min/kg)
Report as a plain number; the unit mL/min/kg is understood.

Look up clearance: COc1ccc2c(O[C@@H]3C[C@H]4C(=O)N[C@]5(C(=O)NS(=O)(=O)C6CC6)C[C@H]5/C=C\CCCCCC(OC(=O)n5ccnc5)C(=O)N4C3)cc(-c3nc(C(C)C)cs3)nc2c1C (stereo partly specified)
53.7

====

# procedure_text: Oral bioavailability in rat
# Assay type: ADME, organism-based
# condition_description: in vivo
outcome_measure: bioavailability (%)
Report as a plain number; the unit % is understood.

Look up bioavailability: COc1ccc2c(O[C@@H]3C[C@H]4C(=O)N[C@]5(C(=O)NS(=O)(=O)C6CC6)C[C@H]5/C=C\CCCCCC(OC(=O)n5ccnc5)C(=O)N4C3)cc(-c3nc(C(C)C)cs3)nc2c1C (stereo partly specified)
12
